Assign melting point to each entry below.

Give the measured melting point of CC1=C(c2ccccc2)n2nc(C)c(C(N)=O)c2NC1 .
208 to 210 °C

Cool, now COc1ccc(-c2nnc3c4ccccc4c(Nc4ccc(N)cc4)nn23)cc1
295 °C

Check CC(C)C(NS(=O)(=O)c1ccc(-c2cccc(CNC(=O)c3nc4ccccc4c(=O)[nH]3)c2)cc1)C(=O)NO (stereo not given) too.
153 to 155 °C

Then what about the compound Nc1nc(NCCNCC(O)COc2ccccc2)c2ccccc2n1 (stereo not given) ?
152 to 156 °C

What do you have for CCOC(=O)C1=C[C@H](NC(=O)OC(C)(C)C)[C@@H](NC(C)=O)[C@@H]2OC(C)(C)O[C@H]12 ?
174 to 175 °C

Also, CCCc1nc(-n2c(C)ccc2C)c(/C=C/C(=O)O)n1Cc1ccc(-c2ccccc2-c2nnn[nH]2)cc1 please.
144 to 150 °C

Similarly, Clc1ccc2c(c1)C(c1ccccc1Cl)=NCc1c[nH]cc1-2 ?
204 to 206 °C

Try this compound too: CCCN(CCC)c1c(C#N)cnn1-c1ccc(Cl)c(Cl)c1Cl
99 to 100 °C

How about this compound: Cc1cc(SCN2C(=O)c3ccccc3C2=O)cc(C(C)(C)C)c1O
114 to 116 °C

Same lookup for CCc1nc2c(N)nc3cc(CCC(=O)N(C)C)ccc3c2n1CC(C)(C)O , please.
234 to 237 °C

Same for CC(C)(C)OC(=O)C[C@@H]1C[C@@H](COc2ccc(-c3ccc(C(=N)NC(=O)OCc4ccccc4)cc3)cc2)NC1=O
136 to 140 °C

Consider next the compound COc1ccc(CC2=NC(C)(C)CO2)cc1[N+](=O)[O-] in the same way.
88 to 90 °C

Same for Cn1nnnc1SCC(=O)Nc1ccc(C2CCCCC2)cc1
204 to 205 °C

Query C=CCOC(=O)C1=C(C)NC(C)=C(C(=O)OCC)C1c1ccc(OC)c(OC)c1OC (stereo not given) next
134 to 135 °C

Further, for CCN(CC)CC(O)c1c[nH]c2c1ccc1c3ccccc3[nH]c12 (stereo not given) ?
148 to 150 °C

Request: CC(C=Cc1ccccc1)NC(=O)c1ccccc1 (racemic)
135 °C

Thanks! And CCc1cc2c(cc1CC)C(=O)C(N=[N+]=[N-])=CC2=O ?
74 to 76 °C

One more compound: CN(C)C1CCN(c2cccc(-c3cnc4[nH]cc(C(=O)C(C)(C)C)c4n3)c2)C1 (stereo not given)
204 to 206 °C

Also need CO/C=C(/C(=O)OC)c1ccccc1Oc1cc(O)ncn1 , thanks.
168 to 170 °C

Follow-up item: COc1ccc(C2(c3ccc(OC)cc3)C(c3ccccc3)C2(Cl)Cl)cc1 (stereo not given)
124 to 125 °C

====

endpoint: melting point

What does the data say about its melting point? Entry: CC(C)(C)c1ccc(CCCC(O)CC2CCCCC2)cc1NC(=O)CC1c2ccccc2Oc2ccccc21 (stereo not given)
157 to 158 °C

Subsequent entry: Cn1c2cccc(C#N)c2c2nc3ccccc3nc21
237 °C

And then CCOC(=S)c1c(C)nc2sccn12 , what is it?
133 to 135 °C

Next record, please: CC(C)(C#N)ON1C(C)(C)CC(OC(=O)c2ccccc2)CC1(C)C
128 to 129 °C

Please give the result for CC(=O)Oc1cc2c(s1)CCN(C(C(=O)C1CC1)c1ccccc1F)C2 (stereo not given) too.
120 to 122 °C

Here is the next compound: N#CC(C#N)=NC1=C(N2CCOCC2)CCC1
157 to 158 °C

Now consider BrCc1ccc2sc3ccc4ccccc4c3c2c1 and answer again.
202 to 203 °C

Would you kindly repeat that for O=S(=O)(Nc1ccc(C(O)(C(F)(F)F)C(F)(F)F)cc1)c1ccccc1 ?
117 to 118 °C

Next compound: COC(=O)C(C)Oc1ccc(N(C)c2nc3cc(Cl)ccc3s2)cc1 (stereo not given)
120 °C

Try COc1cc(N2CCN([C@H]3CC[C@H](c4cn(C)c5ccc(C#N)cc54)CC3)CC2)c2ncccc2c1Cl next.
215 to 216 °C

====

Give melting point for every item shown.
Reply numerically in °C, unit not repeated.

Which value of melting point has been reported for O=C(O)c1ccccc1S(=O)(=O)Cc1c(O[C@H](Cn2ccnc2)c2ccccc2)ccc2c1CCCC2=O in the records?
230

Now the same for CN1CCN(C2=N/C(=C\c3c[nH]c4ncc(-c5ccccc5)cc34)C(=O)N2)CC1
304

====

endpoint: melting point

What melting point value was documented for this compound, N=C(N)c1ccc2ncn(CC(=O)N3CCC(Cc4ccccc4)CC3)c2c1 ?
68 to 70 °C

Moving on to the next compound: O=C1CCC(O)(c2nc3ccccc3s2)C(Sc2ccccc2)(Sc2ccccc2)C1 (centres undefined)
150 to 151 °C

Would you kindly repeat that for O=C(O)C=CSc1c[nH]c2ccccc12 ?
172 to 173 °C

Field entry: CCOC(=O)c1[nH]c2cc(C(F)(F)F)ccc2c1NCC(=O)c1ccccc1
237 to 239 °C

Record: O=C(O)COc1ccc(Nc2nccc(-c3ccncc3)n2)cc1
308 to 310 °C

What do we get for CCOCCCOc1ccc(-c2ccc3c(c2)C=C(C(=O)Nc2ccc(CN(C)C4CCOCC4)cc2)CCS3(=O)=O)cc1 ?
214 to 215 °C

Okay, and COc1cc(C=C2COCC(=Cc3cc(OC)c(OC)c(OC)c3)C2=O)cc(OC)c1OC ?
187 to 189 °C

Ok, now CN1C(=O)C2(COc3cc4c(cc32)OCCO4)c2c(C(=O)N3CCCC3)cccc21 (centres undefined)
242 to 244 °C

Lookup CCCCn1c(=S)c2c(ncn2CC(C)=O)n(CC)c1=O
173 to 174 °C

Cool, now O=C(Nc1cccc2[nH]ccc12)C1(OCC2CO2)C=C(Cl)C=CC1 (centres undefined)
175 °C

And for Cc1ccc2c(c1)c1c(n2Cc2ccccc2)CCCC1C(=O)O (centres undefined) ?
200 to 208 °C

And CC(C)Oc1cc(OC(C)C)c2c(=O)cc(Sc3ccc(O)cc3)oc2c1 ?
234 to 236 °C

Similarly, N#CC1Nc2ccccc2N2CCc3cccc1c32 (centres undefined) ?
185 to 186 °C

Now try Nc1ccc2c(c1)c(=O)[nH]c(=O)n2CCCCN1CCC(OC(c2ccccc2)c2ccccc2)CC1 .
131 to 133 °C

Please answer likewise for CCN1C(=O)C(C)(C)C(=O)N(C)c2cc(CCN(CCn3cc(C)c4occc4c3=O)Cc3cc(C)nn3C)ccc21
171 to 173 °C

Also need O=C(N[C@@H](Cc1ccc(C(F)(F)F)cc1)[C@H](O)c1ccncc1)c1ccc(F)c2ccccc12 , thanks.
239 to 243 °C

Now the compound Cn1cc(-c2cc3cccnc3[nH]2)c2cc(NS(C)(=O)=O)ccc21
223 to 224 °C

Also need COc1ccc(OC)c2c1C(=O)C=C(SCCCO)C2=O , thanks.
125 to 126 °C

Same thing, different compound: Cc1c(C=NO)c2ccccc2n1-c1ccc(OCc2ccccc2)c(F)c1
167 to 168 °C

====

Exercise: state measured melting point for each of the compounds provided.

Could you tell me which melting point is on file for CC(C)Oc1ccc(-c2ccc3nnn(Cc4ccc5ncccc5c4)c3n2)cc1F ?
128 to 130 °C

Then what about the compound CC(C)[C@]1(CO)CCC(C)(C)C(=O)O1 ?
178 to 181 °C

Also check CCCCCCCCc1ccc(C=Nc2ccc(C#N)cc2)cc1
32.5 to 32.8 °C

Input COCCOc1ccc2cc3ccccc3cc2c1
131 to 134 °C

Record: O=C(Nc1ccccc1)Nc1nc2ccc(OC(=O)c3ccccc3)cc2s1
245 to 249 °C

What would you report for COc1cc(OC(C)C)ccc1-c1nc(-c2ccc(OC(C)C)cc2O)nc(-c2ccc(OC(C)C)cc2O)n1 ?
185 to 188 °C

Entry to check: c1ccc(COc2ccc(OCCN3CCN(c4ccccc4)CC3)cc2)cc1
116 to 119 °C

Same again, this time with COc1ccc(CCN2CCC(C(O)c3ccc(NS(C)(=O)=O)cc3)CC2)cc1 (stereo not given)
40 to 48 °C

Another: C=C1c2ccccc2CC(N)c2ccccc21 (stereo not given)
84.5 to 86.5 °C

Now consider CC(=O)OC1C(C)=C(C)C(=O)N1c1nc2ccc(F)cc2s1 (stereo not given) .
180 to 183 °C

Same question, COC(=O)c1cc(C(=O)c2c(C)c(OC)c3c(OCc4ccccc4)cccn23)ccc1N this time
174 °C

# iterate: CON=C1CN(c2c(F)cc3c(=O)c(C(=O)O)cn(C4CC4)c3c2F)CC12CNC2
205 to 207 °C

What would you report for COc1ccc2c(c1)c(-c1cc3c(Cl)ccnc3[nH]1)cn2C ?
250 to 252 °C

Moving on to CN(Cc1sc2c(=O)c(C(=O)NCc3ccc(Cl)cc3)cn(C)c2c1COCC[Si](C)(C)C)CC(O)c1cnccn1 (stereo not given)
155 to 156 °C

Similarly, Nc1ccc(C23CC(C2)C(=O)NC3=O)cc1 ?
265 °C

Try this compound next: COc1ccc(-c2ccccc2NC(N)=S)cc1
158 to 159 °C

Try COc1cc(-c2nc3ccc(OCCN(C)C)cc3n2Cc2ccccc2C(F)(F)F)cc(OC)c1OC next.
151 °C

Also check CCN1C(=O)NC(=O)C1O (stereo not given)
119 to 120 °C

Also, CC(C)n1c(=O)c(C(=O)O)cc2ccccc21 please.
168 to 169 °C

Then this compound: CC(=O)N(O)C(C)c1ccccc1Nc1c(Cl)ccc(C)c1Cl (stereo not given)
185 to 187 °C
